Source of measurements: patent US20130266566A1

Entries annotated with measured Chromogenic (IC50 in nM) mouse
# Tested Target: T1, mouse PAI-1 (mouse, UniProt P22777 24-401)
# T1 sequence: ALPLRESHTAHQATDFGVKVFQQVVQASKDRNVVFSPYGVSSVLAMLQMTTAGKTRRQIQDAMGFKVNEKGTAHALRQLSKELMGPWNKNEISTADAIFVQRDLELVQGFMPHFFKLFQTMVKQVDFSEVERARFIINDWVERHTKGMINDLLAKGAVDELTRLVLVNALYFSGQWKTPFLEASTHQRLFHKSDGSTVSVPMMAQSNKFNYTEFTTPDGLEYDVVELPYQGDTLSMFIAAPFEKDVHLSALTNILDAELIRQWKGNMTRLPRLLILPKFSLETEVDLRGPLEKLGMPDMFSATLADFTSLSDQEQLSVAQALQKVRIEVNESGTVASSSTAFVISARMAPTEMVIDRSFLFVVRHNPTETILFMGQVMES
# Assay Name: cell-based or functional assay

Binder	Chromogenic (IC50 in nM) mouse
Antibody 10 scFv (scFv) QVQLQQSGAEVKKPGSSVKVSCKASGGTFSSYAISWVRQAPGQGLEWMGGIIPTFGTANYAQKFQGRVTITADESTSTAYMELSSLRSEDTAVYYCAREKRQWLEGHFDYWGRGTPVTVSSDIQMTQSPSFLSASIGDRVAITCRASEGIYHSLAWYQQKPGKAPKLLIYRASSLASGAPSRFSGSGSGTDFTLTISSLQPDDFATYYCQQYSNYPLTFGGGTRLEIK	334
Antibody 12 scFv (scFv) QVQLQQSGAEVKKPGSSVKVSCKASGGTFSSYAISWVRQAPGQGLEWMGGIIPTFPTANYAQKFQGRVTITADESTSTAYMELSGLRSEDTAVYYCAREKRQWLEGHFDYWGRGTPVTVSSDIQMTQSPSFLSASIGDRVTITCRASEGIYHNLAWYQQKPGKAPKLLIYRASSLASGAPSRFSGSGSGTDFTLTISSLQPDDFATYYCQQYSNYPLTFGGGTKLEIK	27.8
